Provide the reported pIC50 of each item.
- STUDY TARGET: wild-type apo-KasA (Mycobacterium tuberculosis, UniProt P9WQD9)
- Sequence (P9WQD9 whole entry, looked up): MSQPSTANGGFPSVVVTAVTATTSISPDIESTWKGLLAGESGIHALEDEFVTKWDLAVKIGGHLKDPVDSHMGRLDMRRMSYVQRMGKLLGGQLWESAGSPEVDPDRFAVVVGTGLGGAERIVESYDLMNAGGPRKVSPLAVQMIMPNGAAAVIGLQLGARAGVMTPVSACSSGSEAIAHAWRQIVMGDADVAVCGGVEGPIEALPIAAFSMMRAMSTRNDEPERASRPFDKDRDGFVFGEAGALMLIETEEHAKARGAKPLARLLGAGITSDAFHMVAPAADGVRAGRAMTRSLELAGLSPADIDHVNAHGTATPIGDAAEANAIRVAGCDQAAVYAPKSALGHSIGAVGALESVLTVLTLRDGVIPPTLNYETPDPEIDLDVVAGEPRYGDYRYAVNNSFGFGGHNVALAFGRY
pIC50: −log10 of the molar value.

Form field: reported pIC50 of COc1ccc(CC2(C)SC(O)=C(C)C2=O)cc1 (stereo not drawn) < 3.00

Same question, CC(C)=CCC1(C)SC(O)=C(C)C1=O (stereo not drawn) this time < 4.00

Same question, C=CCCCCC1(C)SC(=O)C(C)=C1O (stereo not drawn) this time < 4.00

Same question, C=CCCC1(C)SC(=O)C(C)=C1O (stereo not drawn) this time < 3.00

Same question, CCCCCCCCC(C)C1(C)SC(O)=C(C)C1=O (stereo not drawn) this time < 3.00

Same question, COc1cccc(CC2(C)SC(O)=C(C)C2=O)c1 (stereo not drawn) this time < 3.00

Same question, CCCCCC(C)C1(C)SC(O)=C(C)C1=O (stereo not drawn) this time < 3.00

Same question, CC1=C(O)C(C)(CCc2ccccc2)SC1=O (stereo not drawn) this time < 3.00

Same question, CC1=C(O)C(C)(Cc2cccc(C(F)(F)F)c2)SC1=O (stereo not drawn) this time < 3.00

Same question, C=C/C=C/C1(C)SC(=O)C(C)=C1O (stereo not drawn) this time 4.60

Same question, CC1=C(O)C(C)(CCCc2ccccc2)SC1=O (stereo not drawn) this time < 3.00

Same question, C=CCCCC1(C)SC(=O)C(C)=C1O (stereo not drawn) this time < 4.00

Same question, CC1=C(O)SC(C)(CCC(C)C)C1=O (stereo not drawn) this time < 3.00

* * *

- STUDY TARGET: UniProt:P49327
- Sequence (P49327 whole entry, looked up): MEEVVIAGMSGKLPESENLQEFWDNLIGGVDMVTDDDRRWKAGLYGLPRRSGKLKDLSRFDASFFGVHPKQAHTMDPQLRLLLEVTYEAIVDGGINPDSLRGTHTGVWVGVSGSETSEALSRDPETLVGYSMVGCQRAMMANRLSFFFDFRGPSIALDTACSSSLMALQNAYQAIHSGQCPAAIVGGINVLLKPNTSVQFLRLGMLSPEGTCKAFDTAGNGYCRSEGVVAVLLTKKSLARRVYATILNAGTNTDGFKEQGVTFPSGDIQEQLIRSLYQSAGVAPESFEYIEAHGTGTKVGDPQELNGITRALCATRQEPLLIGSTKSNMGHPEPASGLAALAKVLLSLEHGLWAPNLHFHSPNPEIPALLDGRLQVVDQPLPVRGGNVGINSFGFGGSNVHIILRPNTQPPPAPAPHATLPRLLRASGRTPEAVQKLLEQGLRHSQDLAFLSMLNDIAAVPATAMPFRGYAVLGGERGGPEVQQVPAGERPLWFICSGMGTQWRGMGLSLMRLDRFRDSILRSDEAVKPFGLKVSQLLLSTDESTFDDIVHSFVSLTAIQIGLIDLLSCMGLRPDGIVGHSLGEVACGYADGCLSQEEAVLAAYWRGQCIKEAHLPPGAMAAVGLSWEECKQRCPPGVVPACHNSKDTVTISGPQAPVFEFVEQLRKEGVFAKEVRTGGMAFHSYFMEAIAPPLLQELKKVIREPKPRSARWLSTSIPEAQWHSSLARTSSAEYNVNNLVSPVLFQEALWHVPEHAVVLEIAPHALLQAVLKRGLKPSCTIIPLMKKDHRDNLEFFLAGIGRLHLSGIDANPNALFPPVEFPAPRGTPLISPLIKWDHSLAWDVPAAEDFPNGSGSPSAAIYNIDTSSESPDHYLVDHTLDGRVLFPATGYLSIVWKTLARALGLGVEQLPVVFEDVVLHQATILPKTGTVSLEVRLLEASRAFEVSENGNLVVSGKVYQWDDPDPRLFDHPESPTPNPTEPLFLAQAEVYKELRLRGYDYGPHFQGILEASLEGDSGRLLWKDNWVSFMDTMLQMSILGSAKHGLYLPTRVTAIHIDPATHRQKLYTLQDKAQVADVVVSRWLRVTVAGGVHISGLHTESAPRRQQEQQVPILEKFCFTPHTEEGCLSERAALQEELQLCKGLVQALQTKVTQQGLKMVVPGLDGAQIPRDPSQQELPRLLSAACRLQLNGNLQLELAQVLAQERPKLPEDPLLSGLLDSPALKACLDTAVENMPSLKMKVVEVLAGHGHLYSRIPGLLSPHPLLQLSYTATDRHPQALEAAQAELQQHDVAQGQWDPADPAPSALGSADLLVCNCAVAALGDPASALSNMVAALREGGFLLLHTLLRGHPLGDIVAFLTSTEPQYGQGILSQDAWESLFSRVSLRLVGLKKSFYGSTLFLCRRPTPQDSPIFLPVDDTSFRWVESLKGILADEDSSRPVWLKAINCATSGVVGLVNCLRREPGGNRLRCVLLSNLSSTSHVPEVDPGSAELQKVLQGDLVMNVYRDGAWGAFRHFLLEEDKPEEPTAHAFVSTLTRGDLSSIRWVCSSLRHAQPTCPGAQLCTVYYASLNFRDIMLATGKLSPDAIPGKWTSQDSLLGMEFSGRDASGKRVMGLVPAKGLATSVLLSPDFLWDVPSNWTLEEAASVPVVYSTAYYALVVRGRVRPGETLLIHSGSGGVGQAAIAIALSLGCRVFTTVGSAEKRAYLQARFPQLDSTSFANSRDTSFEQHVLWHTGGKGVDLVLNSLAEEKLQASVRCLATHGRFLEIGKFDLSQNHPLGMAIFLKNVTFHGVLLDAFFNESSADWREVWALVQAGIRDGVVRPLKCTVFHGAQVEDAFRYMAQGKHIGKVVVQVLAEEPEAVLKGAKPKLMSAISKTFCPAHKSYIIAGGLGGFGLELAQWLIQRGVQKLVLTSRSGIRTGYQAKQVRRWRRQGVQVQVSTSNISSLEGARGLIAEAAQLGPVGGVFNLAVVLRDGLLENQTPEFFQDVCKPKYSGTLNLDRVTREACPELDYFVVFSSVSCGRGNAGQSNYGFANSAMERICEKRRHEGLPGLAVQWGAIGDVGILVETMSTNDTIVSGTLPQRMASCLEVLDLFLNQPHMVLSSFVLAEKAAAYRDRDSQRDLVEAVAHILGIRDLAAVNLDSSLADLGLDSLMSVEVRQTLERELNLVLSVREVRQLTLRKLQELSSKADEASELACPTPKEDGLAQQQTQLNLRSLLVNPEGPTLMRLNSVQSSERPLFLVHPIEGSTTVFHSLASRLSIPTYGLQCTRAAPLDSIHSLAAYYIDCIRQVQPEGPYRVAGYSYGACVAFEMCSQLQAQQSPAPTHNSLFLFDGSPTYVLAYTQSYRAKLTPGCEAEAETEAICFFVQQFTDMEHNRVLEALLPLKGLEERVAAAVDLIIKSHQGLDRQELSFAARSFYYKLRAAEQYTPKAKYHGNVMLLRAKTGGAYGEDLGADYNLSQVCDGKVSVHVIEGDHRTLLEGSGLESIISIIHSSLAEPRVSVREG
- ASSAY DETAILS: Inhibitory activity against human FAS1 at 100 uM
Activity calls are given as the source filed them. No cut-off for these calls is given here.
PROPERTY MEASURED: inhibition

Below, 4 compounds whose answers are already recorded.
1. CC/C(C)=C/[C@@]1(C)SC(O)=C(C)C1=O : inactive
2. CCC(C)C[C@@]1(C)SC(O)=C(C)C1=O (stereo not given in full) : inactive
3. C/C=C/C(C)=C/[C@@]1(C)SC(O)=C(C)C1=O : inactive
4. C=C/C=C/C1(C)SC(=O)C(C)=C1O (stereo not given) : inactive

Query compound follows.
Form field: reported inhibition of C=CC(C)C[C@@]1(C)SC(O)=C(C)C1=O (stereo not given in full) inactive

* * *

- STUDY TARGET: Mycobacterial beta-ketoacyl-[acyl-carrier-protein] synthase III (Mycobacterium tuberculosis) (UniProt P9WNG3)
- Sequence (P9WNG3 whole entry): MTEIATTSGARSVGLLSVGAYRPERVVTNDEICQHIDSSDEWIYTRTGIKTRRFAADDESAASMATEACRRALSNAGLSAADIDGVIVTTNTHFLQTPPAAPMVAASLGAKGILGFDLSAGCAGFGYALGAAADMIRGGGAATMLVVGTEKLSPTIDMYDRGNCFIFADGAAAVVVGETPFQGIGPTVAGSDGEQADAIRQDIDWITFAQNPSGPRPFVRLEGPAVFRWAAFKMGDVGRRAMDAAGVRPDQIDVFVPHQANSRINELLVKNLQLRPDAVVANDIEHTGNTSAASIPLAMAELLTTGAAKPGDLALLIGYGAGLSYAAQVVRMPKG
- ASSAY DETAILS: Inhibitory activity against FabH from Mycobacterium tuberculosis H37Rv at 100 uM
Active and inactive are the calls of the source. The rule behind the calls is not given here.
PROPERTY MEASURED: inhibition

Below, 5 compounds whose answers are already recorded.
1) CCCCCC1(C)SC(O)=C(C)C1=O (centres undefined) : inactive
2) C/C=C/CC1(C)SC(O)=C(C)C1=O (centres undefined) : inactive
3) CC1=C(O)SC(C)C1=O (centres undefined) : inactive
4) CC1=C(O)C(C)(Cc2ccc(Cl)cc2Cl)SC1=O (centres undefined) : < 30%
5) C=C(C)CC1(C)SC(O)=C(C)C1=O (centres undefined) : inactive

Form field: reported inhibition of CC1=C(O)C(C)(Cc2ccc(C(F)(F)F)cc2)SC1=O (centres undefined) < 30%

Same question, CC1=C(O)C(C)(Cc2ccccc2)SC1=O (centres undefined) this time inactive

Same question, CC1=C(O)C(C)(CC2CC2)SC1=O (centres undefined) this time inactive

Same question, C=CCCCCC1(C)SC(=O)C(C)=C1O (centres undefined) this time inactive

Same question, C=CC(C)CC1(C)SC(O)=C(C)C1=O (centres undefined) this time inactive

Same question, CC1=C(O)C(C)(C2CCCC2)SC1=O (centres undefined) this time inactive

Same question, CC1=C(O)SC(C)(C(C)C)C1=O (centres undefined) this time inactive

Same question, CC(C)=CCC/C(C)=C/CC1(C)SC(O)=C(C)C1=O (centres undefined) this time inactive

Same question, CCC(C)C1(C)SC(O)=C(C)C1=O (centres undefined) this time < 30%
